B1: Segment polarity protein dishevelled homolog DVL-3, residues 2 to 81; numbered along this chain, Q92997 (parent)
chain: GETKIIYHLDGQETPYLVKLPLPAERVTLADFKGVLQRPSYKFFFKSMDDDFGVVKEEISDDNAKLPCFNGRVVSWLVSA

# Variants of: B1
# measurement-notes: abundance fitness (aPCA) (normalised: wild type 0, dead -1); higher = more abundant; growth selection in yeast, the domain comes from the species named
# test-settings: Homo sapiens
reported-metric: abundance fitness

Check out these entries, answers already filled in.
[[record]]
mutant_label = "L36K"
measurement = -0.725

[[record]]
mutant_label = "S60L"
measurement = -0.502

[[record]]
mutant_label = "F43L"
measurement = -0.693

[[record]]
mutant_label = "D49N"
measurement = 0.296


Now consider the entry below.
Task: I am curious: what abundance fitness value has been reported for K33A ?
Output: -1.08
